Assay: Binary supramolecular self-assembly systems of polymer and target: guest concentration over incubation time (Comparative Example 2)
Assay type: physicochemical
Conditions: binary system with 0.5% polymer 106; incubation 6 h
This listing pairs compounds with measured Concentration of the target in the solution measured after different incubation time.
QUANTITY NAME: Concentration of the target in the solution measured after different incubation time (µg/mL)

- C=C(C)[C@@H]1CCC(C)=C[C@H]1c1c(O)cc(CCCCC)cc1O: 155.7
- O=C(O)[C@H]1O[C@@H](Oc2cc3oc(-c4ccc(O)cc4)cc(=O)c3c(O)c2O)[C@H](O)[C@@H](O)[C@@H]1O: 54.3
- O=C1[C@@H]2[C@H]3CC[C@H](C3)[C@@H]2C(=O)N1C[C@@H]1CCCC[C@H]1CN1CCN(c2nsc3ccccc23)CC1: 1.8
- COC1=CC(=O)C[C@@H](C)[C@]12Oc1c(Cl)c(OC)cc(OC)c1C2=O: 60.7
- COc1cc(/C=C/C(=O)CC(=O)/C=C/c2ccc(O)c(OC)c2)ccc1O: 90.3
- Cc1cn(-c2cc(NC(=O)c3ccc(C)c(Nc4nccc(-c5cccnc5)n4)c3)cc(C(F)(F)F)c2)cn1: 50.0
- CCCNS(=O)(=O)Nc1ncnc(OCCOc2ncc(Br)cn2)c1-c1ccc(Br)cc1: 32.5
